system: Escherichia coli TOP10; experiment: shrunken log2 fold change of peptide-encoding DNA abundance (4.5 h post-induction vs induction); higher = less antimicrobial activity (less host growth inhibition); conditions: time post-induction: 4.5 h; library: site-saturation at positions 5, 18, 19, 20;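 note: peptides expressed intracellularly from a pBAD plasmid library in pooled LB shake-flask culture, induced with 0.3% L-arabinose, DNA abundance read by NGS, three biological replicates, DESeq2 with apeglm shrinkage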
A collection of sequences and their measured shrunken log2 fold change

{"ordered residues": "RRIRVRPPRLPRPRPRPDCMPRP", "shrunken log2 fold change": 0.116}
{"ordered residues": "RRIRNRPPRLPRPRPRPMKSPRP", "shrunken log2 fold change": -0.106}
{"ordered residues": "RRIRERPPRLPRPRPRPKFEPRP", "shrunken log2 fold change": -0.0495}
{"ordered residues": "RRIRQRPPRLPRPRPRPWNYPRP", "shrunken log2 fold change": -0.201}
{"ordered residues": "RRIRIRPPRLPRPRPRPCNSPRP", "shrunken log2 fold change": -0.271}
{"ordered residues": "RRIRKRPPRLPRPRPRPSNTPRP", "shrunken log2 fold change": -0.231}
{"ordered residues": "RRIRFRPPRLPRPRPRPYCWPRP", "shrunken log2 fold change": -0.652}
{"ordered residues": "RRIRQRPPRLPRPRPRPTQIPRP", "shrunken log2 fold change": 0.223}
{"ordered residues": "RRIRFRPPRLPRPRPRPALWPRP", "shrunken log2 fold change": 0.625}
{"ordered residues": "RRIRYRPPRLPRPRPRPLEEPRP", "shrunken log2 fold change": -0.0801}
{"ordered residues": "RRIRARPPRLPRPRPRPFEFPRP", "shrunken log2 fold change": 0.0786}
{"ordered residues": "RRIRARPPRLPRPRPRPCWAPRP", "shrunken log2 fold change": 0.119}
{"ordered residues": "RRIRWRPPRLPRPRPRPAKKPRP", "shrunken log2 fold change": 0.0808}
{"ordered residues": "RRIRERPPRLPRPRPRPHCRPRP", "shrunken log2 fold change": -0.168}
{"ordered residues": "RRIRERPPRLPRPRPRPIGAPRP", "shrunken log2 fold change": -0.464}
